# assay_text: Cell Viability - LYMP2-015 (AID 971);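 also: cells exposed to compound for 24 h; nearly all actives have a fitted effect of over 55% in size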
# study_conditions: LYMP2-015 lymphoblastoid cell viability; series mostly up to 92.2 µM
# Excerpt: NIH Chemical Genomics Center [NCGC] NIH Molecular Libraries Screening Centers Network [MLSCN] National Institutes of Environmental Health Sciences [NIEHS] National Toxicology Program [NTP] We have developed a 1536-well cell-based assay for quantitative high throughput screening (qHTS) against a number of cell lines to determine in vitro cytotoxicity of small molecules. […] 8. Detection; Luminescence; Viewlux plate reader […]
Results filed as inconclusive are left out. Calls of active or inactive are those of the source. Calls follow the shape of the dose curve; as a rule, active = well fitted cell-killing curve with a large enough effect; inconclusive = small, poorly fitted or top-dose-only effect; inactive = flat fitted curve, though single readings scatter.
measure_name: outcome

Some solved entries appear below for comparison.
>>> df
                           structure_string  endpoint_value
0           CC1(C)[C@@H]2CC[C@@]1(C)C(=O)C2        inactive
1                   CCCCCCCCCCCCOS(=O)(=O)O        inactive
2  NC(=O)c1ncn([C@@H]2O[C@H](CO)[C@@H](O)[C@H]2O)n1        inactive
3                               COc1ccccc1O        inactive
4  C[C@]12C[C@H](O)[C@H]3[C@@H](CCC4=CC(=O)CC[C@@]43C)[C@@H]1CC[C@@H]2C(=O)CO        inactive

Batch: outcome for all items listed.
1. O=C1O[C@H]([C@@H](O)CO)C(O)=C1O
2. Cc1cc2nc3c(=O)[nH]c(=O)nc-3n(C[C@H](O)[C@H](O)[C@H](O)CO)c2cc1C
3. CCCCOC(=O)c1ccc(O)cc1
4. NCCNCCNCCN
5. Cc1cc(CC(=O)O)n(C)c1C(=O)c1ccc(Cl)cc1
6. NCCNCCNCCNCCN
7. O=C1c2c(O)cccc2Cc2cccc(O)c21

1. inactive
2. inactive
3. inactive
4. inactive
5. inactive
6. inactive
7. inactive

Batch: outcome for all items listed.
1. Oc1cccc(O)c1
2. [Cl][In]([Cl])[Cl]

1. inactive
2. inactive
